conditions: in 1,4-dioxane, 303.15 K
parameter: solubility (mole fraction)
Note: the reply should be a number with no unit written.

Q. Dear colleague, I am looking for the recorded solubility (mole fraction) of the following molecule: CN1COCN(Cc2cnc(Cl)s2)C1=N[N+](=O)[O-]
A. 0.00496

* * *

details: in 1,4-dioxane, 288.15 K
parameter: solubility (mole fraction)
Note: the reply should be a number with no unit written.

Q. Dear colleague, I am looking for the recorded solubility (mole fraction) of the following compound: CN1COCN(Cc2cnc(Cl)s2)C1=N[N+](=O)[O-]
A. 0.00242

* * *

settings: in DMAc, 278.15 K
parameter: solubility (mole fraction)
Note: the reply should be a number with no unit written.

Q. Dear colleague, I am looking for the recorded solubility (mole fraction) of the following compound: CN1COCN(Cc2cnc(Cl)s2)C1=N[N+](=O)[O-]
A. 0.0654

* * *

conditions: in DMSO, 293.15 K
parameter: solubility (mole fraction)

Q. Dear colleague, I am looking for the recorded solubility (mole fraction) of the following molecule: CN1COCN(Cc2cnc(Cl)s2)C1=N[N+](=O)[O-]
A. 0.0776

* * *

conditions: in DMAc, 283.15 K
parameter: solubility (mole fraction)
Note: the reply should be a number with no unit written.

Q. Dear colleague, I am looking for the recorded solubility (mole fraction) of the following compound: CN1COCN(Cc2cnc(Cl)s2)C1=N[N+](=O)[O-]
A. 0.0728

* * *

conditions: in DMSO, 303.15 K
parameter: solubility (mole fraction)
Note: the reply should be a number with no unit written.

Q. Dear colleague, I am looking for the recorded solubility (mole fraction) of the following compound: CN1COCN(Cc2cnc(Cl)s2)C1=N[N+](=O)[O-]
A. 0.101

* * *

settings: in acetonitrile, 313.15 K
parameter: solubility (mole fraction)

Q. Dear colleague, I am looking for the recorded solubility (mole fraction) of the following compound: CN1COCN(Cc2cnc(Cl)s2)C1=N[N+](=O)[O-]
A. 0.0288

* * *

settings: in 1,4-dioxane, 323.15 K
parameter: solubility (mole fraction)
Note: the reply should be a number with no unit written.

Q. Dear colleague, I am looking for the recorded solubility (mole fraction) of the following compound: CN1COCN(Cc2cnc(Cl)s2)C1=N[N+](=O)[O-]
A. 0.0117

* * *

conditions: in acetonitrile, 303.15 K
parameter: solubility (mole fraction)
Note: the reply should be a number with no unit written.

Q. Dear colleague, I am looking for the recorded solubility (mole fraction) of the following compound: CN1COCN(Cc2cnc(Cl)s2)C1=N[N+](=O)[O-]
A. 0.0196

* * *

conditions: in DMAc, 293.15 K
parameter: solubility (mole fraction)
Note: the reply should be a number with no unit written.

Q. Dear colleague, I am looking for the recorded solubility (mole fraction) of the following molecule: CN1COCN(Cc2cnc(Cl)s2)C1=N[N+](=O)[O-]
A. 0.0888

* * *

conditions: in DMAc, 323.15 K
parameter: solubility (mole fraction)

Q. Dear colleague, I am looking for the recorded solubility (mole fraction) of the following compound: CN1COCN(Cc2cnc(Cl)s2)C1=N[N+](=O)[O-]
A. 0.152

* * *

details: in water, 293.15 K
parameter: solubility (mole fraction)
Note: the reply should be a number with no unit written.

Q. Dear colleague, I am looking for the recorded solubility (mole fraction) of the following compound: CN1COCN(Cc2cnc(Cl)s2)C1=N[N+](=O)[O-]
A. 0.000182
